The origin of these recorded values is patent USRE48335E1.

Positions of bridges follow the written chain, without caps; N, C: chain ends. Non-standard residues stand in square brackets, D forms with d. Residues, ends and D or L forms follow the SMILES beside them. *: point of attachment. X17 = Cc1cc(C(=O)*)cc(C(F)(F)F)c1; Lauroyl = CCCCCCCCCCCC(=O)*; Heptanoyl = CCCCCCC(=O)*; Octanoyl = CCCCCCCC(=O)*; Orn = NCCC[C@H](N)C(=O)O; X5 = Cc1cc(C(=O)*)ccc1Cl; Dab = NCC[C@H](N)C(=O)O; Abu = CC[C@H](N)C(=O)O; Dap = NC[C@H](N)C(=O)O; X40 = O=C(c1ccccc1F)*
System: Enterobacter cloacae | Read-out: Minimum inhibitory concentration, Ec FADDI-EC001
Answers are plain numbers, in µg/mL.

// known answers, use as guide
COMPOUND	QUANTITY UNIT	MEASURED RESULT
CCCCCCCC(=O)N[C@@H](CCN)C(=O)N[C@H](C(=O)N[C@@H](CN)C(=O)N[C@H]1CCNC(=O)[C@H]([C@@H](C)O)NC(=O)[C@H](CCN)NC(=O)[C@H](CCN)NC(=O)[C@H](CC)NC(=O)[C@@H](Cc2ccccc2)NC(=O)[C@H](CCN)NC1=O)[C@@H](C)O [Compound 130] (Octanoyl-[Dab]T[Dap][Dab][Dab][dF][Abu][Dab][Dab]T; lactam 4-C)	µg/mL	0.25
CCCCCCCC(=O)N[C@@H](CCCN)C(=O)N[C@H](C(=O)N[C@H](CO)C(=O)N[C@H]1CCNC(=O)[C@H]([C@@H](C)O)NC(=O)[C@H](CCN)NC(=O)[C@H](CCN)NC(=O)[C@H]([C@@H](C)O)NC(=O)[C@@H](CC(C)C)NC(=O)[C@H](CCN)NC1=O)[C@@H](C)O [Compound 14] (Octanoyl-[Orn]T[dS][Dab][Dab][dL]T[Dab][Dab]T; lactam 4-C)	µg/mL	0.25
CCCCCCCCCCCC(=O)N[C@@H](CCN)C(=O)N[C@H](C(=O)N[C@@H](CCN)C(=O)N[C@H]1CCNC(=O)[C@H]([C@@H](C)O)NC(=O)[C@H](CCN)NC(=O)[C@H](CCN)NC(=O)[C@H]([C@@H](C)O)NC(=O)[C@@H](CC(C)C)NC(=O)[C@H](CCN)NC1=O)[C@@H](C)O [Compound 28] (Lauroyl-[Dab]T[Dab][Dab][Dab][dL]T[Dab][Dab]T; lactam 4-C)	µg/mL	0.5
CCCCCCC(=O)N[C@@H](CCN)C(=O)N[C@H](C(=O)N[C@H](CO)C(=O)N[C@H]1CCNC(=O)[C@H]([C@@H](C)O)NC(=O)[C@H](CCN)NC(=O)[C@H](CCN)NC(=O)[C@H]([C@@H](C)O)NC(=O)[C@@H](CC(C)C)NC(=O)[C@H](CCN)NC1=O)[C@@H](C)O [Compound 16] (Heptanoyl-[Dab]T[dS][Dab][Dab][dL]T[Dab][Dab]T; lactam 4-C)	µg/mL	0.5
CC[C@@H]1NC(=O)[C@@H](CC(C)C)NC(=O)[C@H](CCN)NC(=O)[C@@H](NC(=O)[C@H](CN)NC(=O)[C@@H](NC(=O)[C@H](CCN)NC(=O)c2ccccc2F)[C@@H](C)O)CCNC(=O)[C@H]([C@@H](C)O)NC(=O)[C@H](CCN)NC(=O)[C@H](CCN)NC1=O [Compound 73] (X40-[Dab]T[Dap][Dab][Dab][dL][Abu][Dab][Dab]T; lactam 4-C)	µg/mL	0.25
CCCCCCC(=O)N[C@@H](CCN)C(=O)N[C@H](C(=O)N[C@@H](CN)C(=O)N[C@H]1CCNC(=O)[C@H]([C@@H](C)O)NC(=O)[C@H](CCN)NC(=O)[C@H](CCN)NC(=O)[C@H]([C@@H](C)O)NC(=O)[C@@H](CC(C)C)NC(=O)[C@H](CCN)NC1=O)[C@@H](C)O [Compound 44] (Heptanoyl-[Dab]T[Dap][Dab][Dab][dL]T[Dab][Dab]T; lactam 4-C)	µg/mL	0.25

Working through the 2 compounds below one at a time, give Minimum inhibitory concentration, Ec FADDI-EC001 for each.
1. CC[C@@H]1NC(=O)[C@@H](CC(C)C)NC(=O)[C@H](CCN)NC(=O)[C@@H](NC(=O)[C@H](CN)NC(=O)[C@@H](NC(=O)[C@H](CCN)NC(=O)c2ccc(Cl)c(C)c2)[C@@H](C)O)CCNC(=O)[C@H]([C@@H](C)O)NC(=O)[C@H](CCN)NC(=O)[C@H](CCN)NC1=O [Compound 104] (X5-[Dab]T[Dap][Dab][Dab][dL][Abu][Dab][Dab]T; lactam 4-C)
2. CC[C@@H]1NC(=O)[C@@H](CC(C)C)NC(=O)[C@H](CCN)NC(=O)[C@@H](NC(=O)[C@H](CN)NC(=O)[C@@H](NC(=O)[C@H](CCN)NC(=O)c2cc(C)cc(C(F)(F)F)c2)[C@@H](C)O)CCNC(=O)[C@H]([C@@H](C)O)NC(=O)[C@H](CCN)NC(=O)[C@H](CCN)NC1=O [Compound 120] (X17-[Dab]T[Dap][Dab][Dab][dL][Abu][Dab][Dab]T; lactam 4-C)

Completion:
[0.5, 0.25]
